B1: TRIM9 (parent)
chain: PRNSCITCPQCHRSLILDDRGLRG

- Variants of: B1
- protocol.notes: protein stability index of a GFP-peptide fusion (GPS, HEK-293T) (PSI 1-6); higher = more stable;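 also: lentivirally expressed fusions sorted by FACS into six bins by GFP to DsRed ratio, PSI derived from sequencing read proportions per bin multiplied by bin number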
- experimental.parameters: c terminus: a fixed tail appended
quantity: protein stability index

chain	quantity	observed.value
PRNSCITCDQCHRSLILDDRGLRG	protein stability index	2.05
PRNSCITCPQCHRSNILDDRGLRG	protein stability index	1.98
PRNSCITCPQCHRSLPLDDRGLRG	protein stability index	2.42
PRNSCITMPQCHRSLILDDRGLRG	protein stability index	2.62
PRNSCITCPQCHRILILDDRGLRG	protein stability index	2.93
PRNSCITCPQCHRSLILDDRGLQG	protein stability index	2.41
PRNSCITCPQCLRSLILDDRGLRG	protein stability index	3.13
PRNSCITCPQCHRSLILDDRGLNG	protein stability index	2.56
PRNSCITCPQDHRSLILDDRGLRG	protein stability index	2.92
PRCSCITCPQCHRSLILDDRGLRG	protein stability index	1.8
PRNSCITCPQCGRSLILDDRGLRG	protein stability index	2.68
PRNSVITCPQCHRSLILDDRGLRG	protein stability index	2.8
PRNSIITCPQCHRSLILDDRGLRG	protein stability index	2.34
PRNSCITCPQCHRSLILEDRGLRG	protein stability index	1.71
PRNSCITCPQCHRSIILDDRGLRG	protein stability index	1.68
PRNSCITCPQCHRSLILDDRGLRL	protein stability index	1.81
PRNSCNTCPQCHRSLILDDRGLRG	protein stability index	2.29
PRNSCITCPQCHRKLILDDRGLRG	protein stability index	2.7
PRNSCITCPQCHRSSILDDRGLRG	protein stability index	2.19
PRNSCITCPQCHRSLILDIRGLRG	protein stability index	1.75
PRNSCITCPQCHRSLILDDRGLYG	protein stability index	1.63
PRNWCITCPQCHRSLILDDRGLRG	protein stability index	1.71
PRNSCIPCPQCHRSLILDDRGLRG	protein stability index	1.72
PRNSCITCPQCHRLLILDDRGLRG	protein stability index	2.11
PRNSCITCPQCHRRLILDDRGLRG	protein stability index	2.4
PRNSCITCPQCHRSLILDDRGLRQ	protein stability index	2.28
PRNDCITCPQCHRSLILDDRGLRG	protein stability index	2.29
PRNSCIICPQCHRSLILDDRGLRG	protein stability index	2.16
PRNQCITCPQCHRSLILDDRGLRG	protein stability index	1.85
PRNSCITCPQCHRSLILDDRGHRG	protein stability index	2.49
PRNSCITCPQEHRSLILDDRGLRG	protein stability index	2.86
PRNSCITRPQCHRSLILDDRGLRG	protein stability index	2.47
PRNSCITCPQTHRSLILDDRGLRG	protein stability index	2.78
PPNSCITCPQCHRSLILDDRGLRG	protein stability index	2.92
PRNSCITCPQCHRSLIWDDRGLRG	protein stability index	1.56
PRNSCITCPQCHRSLILDDDGLRG	protein stability index	2.53
PRNSCITCPQCHRSLILDRRGLRG	protein stability index	1.84
PRNSCITCPQWHRSLILDDRGLRG	protein stability index	3.38
PRNSCIHCPQCHRSLILDDRGLRG	protein stability index	3.11
PRNSKITCPQCHRSLILDDRGLRG	protein stability index	1.71
PRNSCITAPQCHRSLILDDRGLRG	protein stability index	2.84
PRNSCITCPQCHRSLILDDRGLRK	protein stability index	1.71
PRNSCITCPQCHRSWILDDRGLRG	protein stability index	2.48
PRNSCITCPLCHRSLILDDRGLRG	protein stability index	1.89
PRNKCITCPQCHRSLILDDRGLRG	protein stability index	1.65
PRNSCITCPQCHRSLILDFRGLRG	protein stability index	1.72

This collection of values is drawn from the supplement of paper PMC10567573.
